B1: Azoarcus group I ribozyme (parent)
chain: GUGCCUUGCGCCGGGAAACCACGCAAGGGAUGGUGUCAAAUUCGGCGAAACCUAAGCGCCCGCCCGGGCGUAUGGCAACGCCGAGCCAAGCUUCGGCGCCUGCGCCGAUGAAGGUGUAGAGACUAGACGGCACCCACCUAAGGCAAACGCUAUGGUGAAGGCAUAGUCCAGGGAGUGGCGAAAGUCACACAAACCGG

- Variants of: B1
- protocolDescription: reverse-splicing fitness (ratio to wild type); higher = more active; in vitro selection; Mg2+ level not given
# binning rule on reverse-splicing fitness: A: < 0.005; B: ≥ 0.005 and < 0.01; C: ≥ 0.01

INSERT INTO measurements (variantcode, group) VALUES
  ('C82A A111C A120C C150G U176G', 'A'),
  ('C82U A111C A120G C150U U176A', 'C'),
  ('C82U A111U A120C A145C C150G U176G', 'A'),
  ('C82G A111C A120G A145U C150A C169G U176A', 'C'),
  ('C82G A120G A145U C150G C169U U176C', 'C'),
  ('C82G A111U A120U C150A', 'B');

Textbook exercise: identify the category of the variant given here, A111G A120G C169A U176G , according to its measured value.
A

And then A120C A145G C169G , what is it?
C

How about this variant: A111C A145G C150A C169U U176C
C

Could you do the same for A111G A120G A145U U176C , please?
C

Also check C82U A111U A120U A145U C150A C169A
A

Do the same for C82G A111C A145G C150G C169U please
B

What about C82U A111C A145U C150G C169A ?
B

Proceed to C82A A120C A145G C150G C169G U176A
C

Another variant: A120C A145G C150U C169U U176G
B
